Test system: NCI-H522
Experiment: NCI tumour cell line growth inhibition, 48 h
The source made the active and inactive calls. Rule as the data show it: active = GI50 up to about 1.1 µM and inactive = higher.

| Compound | Measured target | GI50 |
| --- | --- | --- |
| c1ccc2c(c1)CCc1cc3cc4c(nc3nc1-2)-c1ccccc1CC4 | NCI-H522 | > 100 µM (inactive) |
| O=C(c1nc2ccc(Cl)cc2nc1O)C(O)c1ccccc1 (stereo not drawn) | NCI-H522 | 10.9 µM (inactive) |
| NCC(NC(=O)OCc1ccccc1)C(=O)O (stereo not drawn) | NCI-H522 | > 50 µM (inactive) |
| CN1NC2(CCCCC2)ON=C1c1ccccc1 | NCI-H522 | > 100 µM (inactive) |
| COc1ccc(COCC[C@H](C)OC2OC(CO[Si](C)(C)C(C)(C)C)C(OC(=O)CCCN=[N+]=[N-])C(OC(=O)CCCN=[N+]=[N-])C2OC(=O)CCCN=[N+]=[N-])cc1 (stereo partly drawn) | NCI-H522 | 18.7 µM (inactive) |
| CCN1C[C@]2(C)CC[C@H](OC)C34C1C([C@H](OC(C)=O)[C@@H]32)[C@@]1(OC)C[C@H](OC)[C@H]2C[C@@H]4[C@@H]1[C@H]2O | NCI-H522 | > 100 µM (inactive) |
| N#CC1CCCCCCCCCCC(=O)N(CCCl)C1=O (stereo not drawn) | NCI-H522 | > 100 µM (inactive) |
| CCOC(=O)CCC(NC(=O)OCc1ccccc1)C(=O)NC(CCC(=O)OCC)C(=O)NC(CCC(=O)OCC)C(=O)NC(CCC(=O)OCC)C(=O)NC(CCC(=O)OCC)C(=O)OCC (stereo not drawn) | NCI-H522 | > 100 µM (inactive) |
| COC(=O)CCCc1ccc2c(c1)CC1(C2)Cc2cc3c(cc2C1)CCCC3 | NCI-H522 | 17.7 µM (inactive) |
| C=CC(Br)(CBr)CCC1OC1(C)C (stereo not drawn) | NCI-H522 | 17.2 µM (inactive) |
| COc1cc2c([C@@H](OC(=O)c3ccccc3)c3ccc4c(c3)OCO4)nccc2c(OC)c1OC | NCI-H522 | 19.4 µM (inactive) |
| O=C1c2cc3c(cc2CC12Cc1ccc4c(c1C2=O)CCCC4)CCCC3 (stereo not drawn) | NCI-H522 | 85.7 µM (inactive) |
| CN(C)CCC(O)(c1ccccc1)C(O)(CCN(C)C)c1ccccc1 (stereo not drawn) | NCI-H522 | > 100 µM (inactive) |
| N#CC(C(=O)/C(=N/N)C(C#N)c1ccccc1)c1ccccc1 (stereo not drawn) | NCI-H522 | > 100 µM (inactive) |
| N#C[BH2-][n+]1cn(C2CC(O)C(COP(=O)(O)OC3CC(n4c[n+]([BH2-]C#N)c5c(=O)[nH]c(N)nc54)OC3CO)O2)c2nc(N)[nH]c(=O)c21 (stereo not drawn) | NCI-H522 | > 100 µM (inactive) |
| CC(C)=CCC[C@@H](C)[C@H]1CC[C@@]2(C)[C@@H]3CC[C@H]4C(C)(C)[C@@H](O)CC[C@@]45C[C@@]35CC[C@]12C | NCI-H522 | 20.7 µM (inactive) |
| O=C(c1ccco1)n1c2ccc(Br)cc2c2nc3ccccc3nc21 | NCI-H522 | 12.1 µM (inactive) |
| COc1ccc(C2=NN(c3ccccc3)C[N+](c3ccc(C)cc3)=N2)cc1 | NCI-H522 | 12.7 µM (inactive) |
| Fc1cc2nc3n(c2cc1F)C(c1c(Cl)cccc1Cl)SC3 (stereo not drawn) | NCI-H522 | 16.9 µM (inactive) |
| O=C(O)C1=Cc2cccc3cccc(c23)C1=O | NCI-H522 | > 100 µM (inactive) |
| OCCCC(O)(c1ccccc1)c1ccccc1 | NCI-H522 | > 100 µM (inactive) |
| Cc1c(C(=N)N)oc2ccccc12 | NCI-H522 | > 100 µM (inactive) |
| c1ccc(C2=NCCc3cc4c(cc32)OCO4)cc1 | NCI-H522 | > 100 µM (inactive) |

meta.source: ChEMBL document CHEMBL1201862
